growth values for the compounds below.
# Tested on: SK-OV-3 ovarian
# test method notes: NCI-60 one-dose screen, 48 h (100 = growth as untreated, 0 = no growth, -100 = all killed)
# test parameters: 10 µM unless noted
The panel holds about 83,000 compounds, 20% with a hit somewhere; the sample as a whole holds those more often.

structure	growth (%)
O=C(/C=C/c1cc(-c2ccc3c(c2)OCO3)n[nH]1)c1ccc2c(c1)OCO2	109
Cc1ccc(CSC(=N)N)cc1C	111
COc1ccc(Nc2ncccc2C(=O)NCc2cn(Cc3cccc(Oc4ccccc4)c3)nn2)cc1	36.8
COc1cc(-c2nn(-c3cccc(NC(=O)Nc4ccc(Cl)c(Cl)c4)c3)cc2-c2ccncc2)ccc1Cl	11.8
COc1cc([N+](=O)[O-])c2ncccc2c1O	37
